B1: Osa-1-4 twister ribozyme (parent)
chain: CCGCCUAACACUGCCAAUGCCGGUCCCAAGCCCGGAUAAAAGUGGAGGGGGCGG

# Variants of: B1
# assayProcedure: self-cleavage, relative activity (ratio to wild type); higher = more cleavage; co-transcriptional
Class label 1: self-cleavage at least 0.1. Class label 0: self-cleavage below 0.1.

INSERT INTO measurements (mutationstring, labelvalue) VALUES
  ('G22U G48C', 'label 0'),
  ('A7U C11A', 'label 0');

Query: Assess whether reported self-cleavage for U37A U43A sits at 0.1 or higher.
Reply: label 1

Query: Assess whether reported self-cleavage for A7U C32G sits at 0.1 or higher.
Reply: label 0

Query: Assess whether reported self-cleavage for A28U C25A sits at 0.1 or higher.
Reply: label 0

Query: Assess whether reported self-cleavage for A38C A46U sits at 0.1 or higher.
Reply: label 0

Query: Assess whether reported self-cleavage for C25G G22U sits at 0.1 or higher.
Reply: label 0

Query: Assess whether reported self-cleavage for A10U A40G sits at 0.1 or higher.
Reply: label 0

Query: Assess whether reported self-cleavage for G30C G35A sits at 0.1 or higher.
Reply: label 0

Query: Assess whether reported self-cleavage for G13C G45C sits at 0.1 or higher.
Reply: label 0

Query: Assess whether reported self-cleavage for `A38U` sits at 0.1 or higher.
Reply: label 1

Query: Assess whether reported self-cleavage for A46G C32A sits at 0.1 or higher.
Reply: label 0

Query: Assess whether reported self-cleavage for A41C C26A sits at 0.1 or higher.
Reply: label 0
